# System: BT-549 breast
# TEST DESCRIPTION: NCI tumour cell line growth inhibition, 48 h
REPORTED ENDPOINT: TGI

{"MOLECULE": "O=[N+]([O-])c1nccn1CCCN=c1c2ccccc2n(O)c2ccccc12", "RESULT": "> 100 µM"}
{"MOLECULE": "OCC1C(O)C(O)[C@@H]2SCCN12 (stereo not given in full)", "RESULT": "> 100 µM"}
{"MOLECULE": "NC(=O)Cc1ccccc1Oc1nccc(-c2c(-c3ccc(F)cc3)ncn2C2CCNCC2)n1", "RESULT": "> 25 µM"}
{"MOLECULE": "NCCCCN", "RESULT": "> 100 µM"}

Hi there! I need TGI for each item below, if you can.
1. COc1ccc(Cc2cc(OC)c(OC)c(OC)c2)cc1O
2. COC(OC)C1(c2ccccc2)Oc2ccccc2C1=O (stereo not given)
3. COc1ccc(-c2cn3c(nc4ccccc43)c(C)n2)cc1
4. Nc1sccc1S(=O)(=O)c1ccsc1N
5. O=C1OCC2=C1C(c1ccccc1)c1cc3c(cc1N2CCO)CCC3 (stereo not given)
6. CCOC(=O)CCC(NC(=O)N1CCN(c2c(C)nc(C)[nH]c2=O)CC1)C(=O)OCC (stereo not given)

Marked response:
["> 100 µM", "> 100 µM", "> 100 µM", "> 100 µM", "> 25 µM", "> 100 µM"]

###

# System: TK-10 renal
# TEST DESCRIPTION: NCI tumour cell line growth inhibition, 48 h
Could you please report measured GI50 for the items listed next?

Some compounds with recorded GI50:
{"COMPOUND": "C[C@H]1O[C@@H](O[C@H]2[C@@H](O)C[C@H](O[C@H]3[C@@H](O)C[C@H](O[C@H]4CC[C@]5(C)C6C[C@@H](O)[C@]7(C)[C@@H](C8=CC(=O)OC8)CC[C@]7(O)C6CC[C@@H]5C4)O[C@@H]3C)O[C@@H]2C)C[C@H](O)[C@@H]1O (some centres undefined)", "GI50": "0.0266 µM"}
{"COMPOUND": "CN(C)c1cc2c(Nc3ccc4nc(Cc5ccccc5)[nH]c4c3)ncnc2cn1", "GI50": "4.9 µM"}
{"COMPOUND": "Clc1ccc(-c2nc(-c3c[nH]c4ncccc34)cs2)cc1", "GI50": "> 100 µM"}

Next compound, GI50 to be filled in.
Exam item: Recorded GI50 for [Ce+3].[Cl-].[O-]/N=C(\c1ccccc1)c1ccccn1.[O-]/N=C(\c1ccccc1)c1ccccn1.[O-]/N=C(\c1ccccc1)c1ccccn1 , please?
Marked response: 51.4 µM

###

# Tested on: MDA-N
# TEST DESCRIPTION: NCI tumour cell line growth inhibition, 48 h
REPORTED ENDPOINT: TGI

Solved cases below.
{"MOLECULE": "O=[n+]1cnn([O-])c2ccccc21", "RESULT": "44.2 µM"}
{"MOLECULE": "CCN(CC)CCC(=O)c1ccc(Oc2ccc(C)cc2)cc1", "RESULT": "31.5 µM"}
{"MOLECULE": "COc1ccc(-c2cn3c(nc4ccccc43)c(C)n2)cc1", "RESULT": "> 100 µM"}
{"MOLECULE": "O=c1oc2c(Br)c(O)c(Br)cc2c2ccccc12", "RESULT": "> 100 µM"}
{"MOLECULE": "Cn1ccnc1SC(F)(F)c1nc2ccccc2o1", "RESULT": "> 100 µM"}

Provide each entry's TGI from the list below.
1. NC(=O)ON=C1CCN(Cc2ccccc2)CC1
2. CC(=O)OC[C@@]12CC[C@H]3C(C)(C)CCC[C@]3(C)[C@H]1C[C@@H](C1=CC(=O)O[C@H]1O)O2
3. NC(CCc1ccccc1)(C(=O)O)c1ccccc1 (stereo not drawn)

Marked response:
["> 100 µM", "5.53 µM", "> 100 µM"]
